# credit: the supplement of paper PMC11061612

# Test system: BC-1 (B-Cell Non-Hodgkin's Lymphoma);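 note: after 72 h of two-drug dosing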
# Measurement Notes: Bliss excess, mean over the matrix (fraction); higher = more synergy
# Bliss excess listing for each entry below

{"columns": ["Compound", "Bliss excess"],
 "data": [
  ["CN(CCO)CC[C@H](CSc1ccccc1)Nc1ccc(S(=O)(=O)NC(=O)c2ccc(N3CCC([C@@H](O)c4ccccc4-c4ccc(Cl)cc4)CC3)cc2)cc1S(=O)(=O)C(F)(F)F [AZD4320] + C=CCn1c(=O)c2cnc(Nc3ccc(N4CCN(C)CC4)cc3)nc2n1-c1cccc(C(C)(C)O)n1 [AZD1775] (first compound max 1 µM, partner max 1 µM)", 0.0386],
  ["Cc1c2c(nn1C)CSCc1cc(n(C)n1)CSc1cc(c3ccccc3c1)OCCCc1c(C(=O)O)n(C)c3c-2c(Cl)ccc13 [AZD5991] + CC1(C)CCC(CN2CCN(c3ccc(C(=O)NS(=O)(=O)c4ccc(NCC5CCOCC5)c([N+](=O)[O-])c4)c(Oc4cnc5[nH]ccc5c4)c3)CC2)=C(c2ccc(Cl)cc2)C1 [Venetoclax] (first compound max 1 µM, 7x7, partner max 1 µM)", 0.0493],
  ["CS(=O)(=O)CCNCc1ccc(-c2ccc3ncnc(Nc4ccc(OCc5cccc(F)c5)c(Cl)c4)c3c2)o1 [Lapatinib] + C[C@@H](Oc1cc(-c2cnn(C3CCNCC3)c2)cnc1N)c1c(Cl)ccc(F)c1Cl [Crizotinib] (first compound max 10 µM, 7x7, partner max 10 µM)", -0.0557],
  ["CC1(C)CCC(CN2CCN(c3ccc(C(=O)NS(=O)(=O)c4ccc(NCC5CCOCC5)c([N+](=O)[O-])c4)c(Oc4cnc5[nH]ccc5c4)c3)CC2)=C(c2ccc(Cl)cc2)C1 [Venetoclax] + C[C@@H]1COCCN1C2=NC(=NC(=C2)C3(CC3)[S@](=N)(=O)C)C4=C5C=CNC5=NC=C4 [AZD6738] (first compound max 1 µM, 7x7, partner max 10 µM)", 0.0087],
  ["CC1(C)CCC(CN2CCN(c3ccc(C(=O)NS(=O)(=O)c4ccc(NCC5CCOCC5)c([N+](=O)[O-])c4)c(Oc4cnc5[nH]ccc5c4)c3)CC2)=C(c2ccc(Cl)cc2)C1 [Venetoclax] + C[C@@H](Nc1cc(F)cc(F)c1)c1cc(C(=O)N(C)C)cc2c(=O)cc(N3CCOCC3)oc12 [AZD8186] (first compound max 1 µM, 7x7, partner max 3 µM)", -0.0157],
  ["Cc1c2c(nn1C)CSCc1cc(n(C)n1)CSc1cc(c3ccccc3c1)OCCCc1c(C(=O)O)n(C)c3c-2c(Cl)ccc13 [AZD5991] + C1CN(CCC1(C(=O)N[C@@H](CCO)C2=CC=C(C=C2)Cl)N)C3=NC=NC4=C3C=CN4 [Capivasertib] (first compound max 1 µM, 7x7, partner max 3 µM)", 0.0256]
]}

* * *

# System: C32 (Melanoma)
# Measurement Notes: combination Emax (second highest fraction inhibited in the dose matrix, 72 h); higher = more inhibition; extreme values may be limits of the assay
Threshold rule: combination Emax greater than or equal to 0.6 is met; below that, not met.

{"columns": ["Molecule", "Discrete Label"],
 "data": [
  ["C[C@@H](Oc1cc(-c2cnn(C3CCNCC3)c2)cnc1N)c1c(Cl)ccc(F)c1Cl [Crizotinib] + CC1=C(C(=CC=C1)Cl)NC(=O)C2=CN=C(S2)NC3=CC(=NC(=N3)C)N4CCN(CC4)CCO [Dasatinib] (first compound max 10 µM, 7x7, partner max 2 µM)", "not met"],
  ["C=CCn1c(=O)c2cnc(Nc3ccc(N4CCN(C)CC4)cc3)nc2n1-c1cccc(C(C)(C)O)n1 [AZD1775] + Nc1ccn([C@@H]2O[C@H](CO)[C@@H](O)C2(F)F)c(=O)n1 [Gemcitabine] (first compound max 1 µM, partner max 0.3 µM)", "met"],
  ["NC1(C(=O)N[C@@H](CCO)c2ccc(Cl)cc2)CCN(c2ncnc3[nH]ccc23)CC1 [Capivasertib] + C[C@@H]1COCCN1C2=NC(=NC(=C2)C3(CC3)[S@](=N)(=O)C)C4=C5C=CNC5=NC=C4 [AZD6738] (first compound max 10 µM, 7x7, partner max 10 µM)", "met"],
  ["Cc1cc2ncnn2cc1Nc1ncc2c(n1)n(C1CCOCC1)c(=O)n2C [AZD7648] + O=C(c1cc(Cc2n[nH]c(=O)c3ccccc23)ccc1F)N1CCN(C(=O)C2CC2)CC1 [Olaparib] (first compound max 10 µM, 7x7, partner max 10 µM)", "not met"],
  ["Cn1cnc2c(F)c(Nc3ccc(Br)cc3Cl)c(C(=O)NOCCO)cc21 [Selumetinib] + C[C@@H]1COCCN1C2=NC(=NC(=C2)C3(CC3)[S@](=N)(=O)C)C4=C5C=CNC5=NC=C4 [AZD6738] (first compound max 10 µM, 7x7, partner max 10 µM)", "met"],
  ["CN(C)CCCOc1ccc(-c2ccc3ncc4c(c3c2)n(C2CCOCC2)c(=O)n4C)cn1 [AZD0156] + C=CCn1c(=O)c2cnc(Nc3ccc(N4CCN(C)CC4)cc3)nc2n1-c1cccc(C(C)(C)O)n1 [AZD1775] (first compound max 1 µM, partner max 1 µM)", "not met"],
  ["COc1cccc(OCCCN)c1-c1cc(Nc2cnc(C#N)cn2)n[nH]1 [Prexasertib] + Cc1cc2ncnn2cc1Nc1ncc2c(n1)n(C1CCOCC1)c(=O)n2C [AZD7648] (first compound max 1 µM, 7x7, partner max 10 µM)", "met"],
  ["CN(CCO)CC[C@H](CSc1ccccc1)Nc1ccc(S(=O)(=O)NC(=O)c2ccc(N3CCC([C@@H](O)c4ccccc4-c4ccc(Cl)cc4)CC3)cc2)cc1S(=O)(=O)C(F)(F)F [AZD4320] + CS(=O)(=O)CCNCc1ccc(-c2ccc3ncnc(Nc4ccc(OCc5cccc(F)c5)c(Cl)c4)c3c2)o1 [Lapatinib] (first compound max 1 µM, 7x7, partner max 10 µM)", "not met"]
]}
